system: human FPR2 (Homo sapiens, UniProt P25090)
Sequence (P25090 1-351): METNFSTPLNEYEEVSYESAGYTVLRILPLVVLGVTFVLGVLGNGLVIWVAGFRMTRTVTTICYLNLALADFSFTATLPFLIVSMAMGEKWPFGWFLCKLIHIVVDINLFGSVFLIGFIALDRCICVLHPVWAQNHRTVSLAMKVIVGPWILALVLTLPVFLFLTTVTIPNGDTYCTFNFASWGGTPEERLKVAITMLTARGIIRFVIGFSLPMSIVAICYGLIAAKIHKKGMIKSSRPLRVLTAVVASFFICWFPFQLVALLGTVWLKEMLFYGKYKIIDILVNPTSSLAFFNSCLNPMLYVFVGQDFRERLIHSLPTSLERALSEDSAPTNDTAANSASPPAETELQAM
test-summary: FPR2 cyclic adenosine monophosphate (cAMP) assay
measurement-parameters: CHO cells overexpressing human FPR2; forskolin 5 μM; inhibition of cAMP production; HTRF; read-out: hFPR2 cAMP2 EC50
observation-type: EC50 (nM)
Report only the number, with the unit nM understood.

Exam item: Give EC50 (human FPR2 (Homo sapiens, UniProt P25090)) of the following molecule: COc1cc(F)c(-c2c(NC(=O)c3ccc(OC(F)F)cc3)c(=O)n(-c3c(F)cccc3F)n2C)c(F)c1 [Example 27]
Marked response: 10

Exam item: Give EC50 (human FPR2 (Homo sapiens, UniProt P25090)) of the following molecule: COc1cc(C2CCOCC2)nc(-n2c(=O)c(NC(=O)c3ccc(OC(F)F)cc3)c(-c3c(F)cc(OC)cc3F)n2C)c1 [Example 345]
Marked response: 5

Exam item: Give EC50 (human FPR2 (Homo sapiens, UniProt P25090)) of the following molecule: COc1cc(-n2c(=O)c(NC(=O)c3ccc(OC(F)F)cc3)c(-c3c(F)cc(OC)cc3F)n2C)nc(C(F)(F)F)c1 [Example 162]
Marked response: 12

Exam item: Give EC50 (human FPR2 (Homo sapiens, UniProt P25090)) of the following molecule: COc1cc(F)c(-c2c(NC(=O)c3ccc(OC(F)F)cc3)c(=O)n(-c3cc(OC4CCOC4)cc(C)n3)n2C)c(F)c1 (stereo not shown) [Example 321]
Marked response: 4

Exam item: Give EC50 (human FPR2 (Homo sapiens, UniProt P25090)) of the following molecule: COc1cc(F)c(-c2c(NC(=O)c3ccc(OC(F)F)cc3)c(=O)n(-c3cccc(C#N)c3F)n2C)c(F)c1 [Example 189]
Marked response: 5

Exam item: Give EC50 (human FPR2 (Homo sapiens, UniProt P25090)) of the following molecule: COc1cc(F)c(-c2c(NC(=O)c3ccc(OC(F)F)cc3)c(=O)n(-c3cccc(N4CC[C@H](O)C4)n3)n2C)c(F)c1 [Example 102]
Marked response: 2

Exam item: Give EC50 (human FPR2 (Homo sapiens, UniProt P25090)) of the following molecule: COc1cc(F)c(-c2c(NC(=O)c3ccc(OC(F)F)cc3)c(=O)n(-c3cccc(OCCO)n3)n2C)c(F)c1 [Example 333]
Marked response: 14

----------
system: human FPR2 (Homo sapiens)
Sequence (P25090 1-351): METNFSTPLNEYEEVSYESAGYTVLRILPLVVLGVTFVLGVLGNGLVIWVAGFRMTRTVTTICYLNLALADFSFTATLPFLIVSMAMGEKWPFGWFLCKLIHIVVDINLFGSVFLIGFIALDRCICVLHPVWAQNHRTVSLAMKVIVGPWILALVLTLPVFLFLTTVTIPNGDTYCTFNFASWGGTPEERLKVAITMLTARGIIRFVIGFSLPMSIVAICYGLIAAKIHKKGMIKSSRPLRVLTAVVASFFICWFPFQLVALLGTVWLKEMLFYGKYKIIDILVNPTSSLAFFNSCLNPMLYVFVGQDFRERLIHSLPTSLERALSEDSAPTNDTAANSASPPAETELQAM
test-summary: FPR2 cyclic adenosine monophosphate (cAMP) assay
measurement-parameters: CHO cells overexpressing human FPR2; forskolin 5 μM; inhibition of cAMP production; HTRF; read-out: hFPR2 cAMP2 EC50
// pEC50 lookup, one value per entry
Bear in mind: pEC50 is minus log10 of a mol/L concentration; give just that figure.

Before answering, review these 3 worked examples.
structure-smiles	meas-value
COc1cc(F)c(-c2c(NC(=O)c3ccc(OC(F)F)cc3)c(=O)n(-c3nccc(C)c3C#N)n2C)c(F)c1	8.40
Cn1c(-c2ccc(C3CC3)cc2)c(NC(=O)c2ccc(OC(F)F)cc2)c(=O)n1-c1ncccc1C(F)(F)F	7.77
COc1cc(F)c(-c2c(NC(=O)c3ccc(OC(F)F)cc3)c(=O)n(-c3nc(N4CC[C@H](O)C4)ccc3C(F)(F)F)n2C)c(F)c1	8.70

Exam item: What pEC50 value was documented for this compound, COc1cc(F)c(-c2c(NC(=O)c3ccc(OC(F)F)cc3)c(=O)n(-c3ncccc3Br)n2C)c(F)c1 ?
Marked response: 7.82

Exam item: What pEC50 value was documented for this compound, COc1cc(O)c(-c2c(NC(=O)c3ccc(OC(F)F)cc3)c(=O)n(-c3nc(Cl)ccc3Cl)n2C)c(F)c1 ?
Marked response: 7.48

Exam item: What pEC50 value was documented for this compound, CNc1ccc(C(F)(F)F)c(-n2c(=O)c(NC(=O)c3ccc(OC(F)F)cc3)c(-c3c(F)cc(OC)cc3F)n2C)n1 ?
Marked response: 8.52

Exam item: What pEC50 value was documented for this compound, COc1cc(F)c(-c2c(NC(=O)c3ccc(OC(F)F)cc3)c(=O)n(-c3cccc(CN(C)C)n3)n2C)c(F)c1 ?
Marked response: 7.82

Exam item: What pEC50 value was documented for this compound, COc1cc(F)c(-c2c(NC(=O)c3ccc(OC(F)F)cc3)c(=O)n(-c3ccc4ccccc4n3)n2C)c(F)c1 ?
Marked response: 8.52

Exam item: What pEC50 value was documented for this compound, COc1cc(F)c(-c2c(NC(=O)c3ccc(OC(F)F)cc3)c(=O)n(-c3cccc(C4(O)CCC4)n3)n2C)c(F)c1 ?
Marked response: 8.40

Exam item: What pEC50 value was documented for this compound, COc1cc(F)c(-c2c(NC(=O)c3ccc(OC(F)F)cc3)c(=O)n(-c3nc(N(C)C)ccc3C(F)(F)F)n2C)c(F)c1 ?
Marked response: 8.52

Exam item: What pEC50 value was documented for this compound, Cn1c(-c2c(F)cc(C(F)(F)F)cc2F)c(NC(=O)c2ccc(OC(F)F)cc2)c(=O)n1-c1cccc(C(C)(C)O)n1 ?
Marked response: 6.99

Exam item: What pEC50 value was documented for this compound, COc1cncc(-n2c(=O)c(NC(=O)c3ccc(OC(F)F)cc3)c(-c3c(F)cc(OC)cc3F)n2C)c1 ?
Marked response: 7.62

Exam item: What pEC50 value was documented for this compound, COc1cc(F)c(-c2c(NC(=O)c3ccc(OC(F)F)cc3)c(=O)n(-c3cccc(Cl)c3F)n2C)c(F)c1 ?
Marked response: 8.40

Exam item: What pEC50 value was documented for this compound, CCc1cc(F)c(-c2c(NC(=O)c3ccc(OC(F)(F)F)cc3)c(=O)n(-c3cccc(C(C)(C)O)n3)n2C)c(F)c1 ?
Marked response: 8.22
